ASSAYED TARGET: human dopamine D2L receptor (Human D2Long Receptors) (Homo sapiens)
Construct: expressed in transfected cells
Sequence (P14416 whole entry): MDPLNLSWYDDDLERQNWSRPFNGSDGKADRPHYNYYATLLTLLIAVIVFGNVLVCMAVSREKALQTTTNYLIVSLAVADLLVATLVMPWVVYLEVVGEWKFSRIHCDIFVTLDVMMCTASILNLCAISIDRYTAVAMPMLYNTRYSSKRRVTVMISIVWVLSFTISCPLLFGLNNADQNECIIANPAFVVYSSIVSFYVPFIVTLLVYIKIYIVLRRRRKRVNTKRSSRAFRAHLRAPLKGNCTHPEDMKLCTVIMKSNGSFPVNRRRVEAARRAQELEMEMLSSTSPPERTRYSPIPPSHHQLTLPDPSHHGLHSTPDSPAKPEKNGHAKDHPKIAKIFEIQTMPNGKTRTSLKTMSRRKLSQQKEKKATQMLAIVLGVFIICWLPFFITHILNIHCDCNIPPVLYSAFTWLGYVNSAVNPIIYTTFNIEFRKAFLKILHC
TEST DETAILS: Human dopamine D2L receptor binding assay ([3H]N-methyl spiroperidol displacement)
DETAILS: Table 2; [3H]N-methyl spiroperidol 0.4 nM; CHO membranes; 37° C., 30 min; pH 7.7; read-out: Ki
Counter-ions that a name gives are not always drawn.
MEASURE NAME: Ki (µM)
Write the answer as a number in µM, unit excluded.

Previously resolved entries follow.
| COMPOUND | ASSAYED TARGET | Ki [µM] |
| --- | --- | --- |
| NC[C@@H]1O[C@H](C2CCN(CCCn3c(=O)[nH]c4ccccc43)CC2)Cc2c1ccc(O)c2O (relative stereo) [Example 34, Hydrate] | human dopamine D2L receptor (Human D2Long Receptors) (Homo sapiens) | 0.432 |
| CNC[C@@H]1O[C@H](C2CCN(CCc3ccc(Cl)cc3)CC2)Cc2c1ccc(O)c2O (relative stereo) [Example 15, dihydrochloride hemihydrate] | human dopamine D2L receptor (Human D2Long Receptors) (Homo sapiens) | 0.413 |
| NC[C@@H]1O[C@H](C2CCN(CCCC(c3ccc(F)cc3)c3ccc(F)cc3)CC2)Cc2c1ccc1c2OC2(CCCCC2)O1 (relative stereo) [Example 39, Hydrate] | human dopamine D2L receptor (Human D2Long Receptors) (Homo sapiens) | 0.153 |
| COc1ccc(CCN2CCC([C@@H]3Cc4c(ccc(O)c4O)[C@H](CN)O3)CC2)cc1 (relative stereo) [Example 11, Dihydrochloride] | human dopamine D2L receptor (Human D2Long Receptors) (Homo sapiens) | 1.2 |
| NC[C@@H]1O[C@H](C2CCNCC2)Cc2c1ccc(O)c2O (relative stereo) [Example 33, Hydrate] | human dopamine D2L receptor (Human D2Long Receptors) (Homo sapiens) | 3.9 |

// next item, Ki requested
// recorded Ki for NC[C@@H]1O[C@H](C2CCN(CCOc3ccccc3)CC2)Cc2c1ccc(O)c2O (relative stereo) [Example 23, hydrate] : 0.5
